// data source = ChEMBL document CHEMBL5058577

tested on: HEK-293T; experiment: Multiplex assay against HEK293T; type: toxicity, cell-based; details: human, 48 h, 10 µM, compound concentration 10 uM, replicate 1
Use 1 (yes) when the recorded Population Healthy Nuclei (%) is no lower than 70%; use 0 (no) when it is lower.

molecule | cat
CN1CCN(c2ccc(Nc3c4ccccc4nc4ccccc34)cc2)CC1.Cl.Cl.O | 0 (no)

Next molecule, please.
Prompt line: Evaluate COc1cc(OC2CCN(C(C)=O)CC2)ccc1C(=O)N1CCC(N2C(=O)OCc3ccccc32)CC1 : Population Healthy Nuclei (%) at minimum 70%?
Response line: 1 (yes)

====

system: HEK-293T; test: Multiplex assay against HEK293T; format: toxicity, cell-based; conditions: human, 12 h, 1 µM, compound concentration 1 uM, replicate 1
Item-by-item account of Population Normal (%)
Write the number in % without appending the unit.

Past entries and their recorded results:
compound | endpoint-result
O=C(NCCNCC(O)COc1ccc(O)cc1)N1CCOCC1.O=C(NCCNCC(O)COc1ccc(O)cc1)N1CCOCC1.O=C(O)/C=C/C(=O)O (configuration not stated) [XAMOTEROL FUMARATE] | 95
Cc1ccc(OCC(O)C(C)NC(C)C)c2c1CCC2.Cl (configuration not stated) | 94
COc1cc(Nc2ncc3c(n2)-c2ccc(Cl)cc2C(c2c(F)cccc2OC)=NC3)ccc1C(=O)O [ALISERTIB] | 94
C[C@@H]1CC(=O)Nc2cccc(-c3ccc4c(c3)c(-c3cnn(C)c3)nn4C)c2N1 | 92
Cl.Cl.OCCOCCN1CCN(C(c2ccccc2)c2ccc(Cl)cc2)CC1 (configuration not stated) [HYDROXYZINE HYDROCHLORIDE] | 93

Prompt line: Please give the measured Population Normal (%) for this compound: COc1cc(OC2CCN(C(C)=O)CC2)ccc1C(=O)N1CCC(N2C(=O)OCc3ccccc32)CC1
Response line: 92

Prompt line: Please give the measured Population Normal (%) for this compound: N[C@](CC1c2ccccc2Oc2ccccc21)(C(=O)O)[C@H]1C[C@@H]1C(=O)O
Response line: 92

Prompt line: Please give the measured Population Normal (%) for this compound: CN1CCN(c2ccc(Nc3c4ccccc4nc4ccccc34)cc2)CC1.Cl.Cl.O
Response line: 96

Prompt line: Please give the measured Population Normal (%) for this compound: O=C(O)CCC/C=C\CC1C(O)CC(O)C1/C=C/C(O)COc1cccc(Cl)c1 (configuration not stated) [CLOPROSTENOL]
Response line: 90

Prompt line: Please give the measured Population Normal (%) for this compound: Cc1cc(O)c(-c2ccc([C@@H](C)CN(C)C)cc2)c2c1[nH]c(=O)c1sccc12
Response line: 72

Prompt line: Please give the measured Population Normal (%) for this compound: O=c1nc2[nH]c3ccccc3nc-2c(=O)[nH]1 [ALLOXAZINE]
Response line: 91

Prompt line: Please give the measured Population Normal (%) for this compound: CCC(=O)OCC(=O)[C@@]1(OC(=O)CC)[C@@H](C)C[C@H]2[C@@H]3CCC4=CC(=O)C=C[C@]4(C)[C@@]3(Cl)[C@@H](O)C[C@@]21C [BECLOMETHASONE DIPROPIONATE]
Response line: 92
